From: ChEMBL document CHEMBL5724914

- SETTINGS: human gut metagenome, 24 h, 2 µM; also: call rule not given here
TEST_READOUT: Bacterial Biotransformation

> print(dat)
                                   compound                 test.readout        experimental.value
1       Cc1cc2c(s1)Nc1ccccc1N=C2N1CCN(C)CC1  Bacterial Biotransformation  Compound NOT metabolized
2  CN1[C@@H]2CC[C@H]1C[C@@H](OC(=O)c1c[nH]c3ccccc13)C2  Bacterial Biotransformation  Compound NOT metabolized
3  CCN(C)C(=O)Oc1cccc([C@H](C)N(C)C)c1.O=C(O)C(O)C(O)C(=O)O [RIVASTIGMINE TARTRATE]  Bacterial Biotransformation  Compound NOT metabolized

###

- ASSAY: The drug is tested on Z-026 corresponding to metagenome with ENA study accession number: PRJEB37062 and ENA sample accession number: ERS12561825 for biotransformation under anaerobic condition. The drug concentrations were measured over 9 timepoints collected between 0 and 24 hours of incubation by liquid-chromatography-coupled mass spectrometry (LC–MS)
- SETTINGS: 2 µM
TEST_READOUT: Bacterial Biotransformation

Worked examples follow.
> print(dat)
                                   compound        experimental.value
1  CCOc1cc(CC(=O)N[C@@H](CC(C)C)c2ccccc2N2CCCCC2)ccc1C(=O)O [REPAGLINIDE]  Compound NOT metabolized
2  CC(=O)O[C@]1(C(C)=O)CC[C@H]2[C@@H]3C=C(C)C4=CC(=O)CC[C@]4(C)[C@H]3CC[C@@]21C [MEGESTROL ACETATE]      Compound metabolized
3  COc1ccnc(C[S+]([O-])c2nc3ccc(OC(F)F)cc3[nH]2)c1OC (stereo unspecified)      Compound metabolized
4  O=P1(N(CCCl)CCCl)NCCCO1 (stereo unspecified) [CYCLOPHOSPHAMIDE ANHYDROUS]  Compound NOT metabolized
5  CC(NC(C)(C)C)C(=O)c1cccc(Cl)c1 (stereo unspecified)  Compound NOT metabolized

Field: next compound
The reported Bacterial Biotransformation of the compound `C[C@@H](c1ncncc1F)[C@](O)(Cn1cncn1)c1ccc(F)cc1F` was Compound NOT metabolized

###

- SETTINGS: human gut metagenome, 24 h, 2 µM
TEST_READOUT: Bacterial Biotransformation

COMPOUND	TEST_READOUT	EXPERIMENTAL_VALUE
C#C[C@]1(OC(C)=O)CC[C@H]2[C@@H]3CCC4=C/C(=N/O)CC[C@@H]4[C@H]3CC[C@@]21CC [NORGESTIMATE]	Bacterial Biotransformation	Compound metabolized
CC(C)c1nc(N(C)S(C)(=O)=O)nc(-c2ccc(F)cc2)c1/C=C/[C@@H](O)C[C@@H](O)CC(=O)[O-].CC(C)c1nc(N(C)S(C)(=O)=O)nc(-c2ccc(F)cc2)c1/C=C/[C@@H](O)C[C@@H](O)CC(=O)[O-].[Ca+2] [ROSUVASTATIN CALCIUM]	Bacterial Biotransformation	Compound NOT metabolized
CC(=O)O[C@]1(C(C)=O)CC[C@H]2[C@@H]3C=C(C)C4=CC(=O)CC[C@]4(C)[C@H]3CC[C@@]21C [MEGESTROL ACETATE]	Bacterial Biotransformation	Compound metabolized
CC[C@H](C)C(=O)O[C@H]1CCC=C2C=C[C@H](C)[C@H](CC[C@@H]3C[C@@H](O)CC(=O)O3)[C@H]21 [MEVASTATIN]	Bacterial Biotransformation	Compound metabolized
CN[C@H]1CC[C@@H](c2ccc(Cl)c(Cl)c2)c2ccccc21 [SERTRALINE]	Bacterial Biotransformation	Compound NOT metabolized

The reported Bacterial Biotransformation of the compound C[C@@H](c1ncncc1F)[C@](O)(Cn1cncn1)c1ccc(F)cc1F [VORICONAZOLE] was Compound metabolized

The reported Bacterial Biotransformation of the compound CCN(CC)CCNC(=O)c1cc(S(C)(=O)=O)ccc1OC [TIAPRIDE] was Compound NOT metabolized

The reported Bacterial Biotransformation of the compound CN1CCC[C@@H]1CCO[C@](C)(c1ccccc1)c1ccc(Cl)cc1.O=C(O)/C=C/C(=O)O [CLEMASTINE FUMARATE] was Compound NOT metabolized

The reported Bacterial Biotransformation of the compound COc1cc2nc(N3CCN(C(=O)C4CCCO4)CC3)nc(N)c2cc1OC (configuration not stated) [TERAZOSIN] was Compound NOT metabolized

The reported Bacterial Biotransformation of the compound Cc1nc(Nc2ncc(C(=O)Nc3c(C)cccc3Cl)s2)cc(N2CCN(CCO)CC2)n1 [DASATINIB ANHYDROUS] was Compound NOT metabolized

The reported Bacterial Biotransformation of the compound OCCN(CCO)c1nc(N2CCCCC2)c2nc(N(CCO)CCO)nc(N3CCCCC3)c2n1 [DIPYRIDAMOLE] was Compound NOT metabolized

The reported Bacterial Biotransformation of the compound CC(=O)Oc1ccc(C(c2ccc(OC(C)=O)cc2)c2ccccn2)cc1 [BISACODYL] was Compound metabolized
